TEST PROTOCOL: NCI Yeast Anticancer Drug Screen. Data for the sgs1 mgt1 strain (AID 161);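 also: 0% = growth of cultures given vehicle only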
CONDITION DETAILS: S. cerevisiae sgs1 mgt1 strain, at 50.0 µM
About 79,000 compounds went through this panel and 15% of them were active in at least one assay; those are over-represented in the sample as a whole. Activity calls are given as the source filed them. Rule as the data show it: active = growth inhibition above about 70%; inactive = the rest.
Pick one: 1 (active), -1 (inactive)

Look over these answered cases.
MOLECULE: COc1cccc(C2c3cc4c(cc3OC(NNc3ccccc3)C2C)OCO4)c1O (stereo unspecified)
CLASS ASSIGNMENT: 1
//
MOLECULE: [N-]=[N+]=Nc1c([N+](=O)[O-])c(Cl)nc2ccccc12
CLASS ASSIGNMENT: 1
//
MOLECULE: CC(C)C1=CC23CCC4C(C)(C(=O)O)CCCC4(C)C2CC1C(C(=O)O)C3C(=O)O (stereo unspecified)
CLASS ASSIGNMENT: 1
//
MOLECULE: COc1cc2c(cc1O)-c1c(cnn1-c1ccccc1)CCC2
CLASS ASSIGNMENT: 1
//
MOLECULE: COc1ccc(C23OCCN2C(=O)c2ccccc23)cc1 (stereo unspecified)
CLASS ASSIGNMENT: 1
//
MOLECULE: O=C(O)C(S(=O)(=O)O)S(=O)(=O)O
CLASS ASSIGNMENT: 1
//
MOLECULE: CCOC(=O)c1[nH]cc(C)c1-c1ccc2c(-c3ccccc3)nc3ccccc3n12
CLASS ASSIGNMENT: -1
//
MOLECULE: CCCCCCCCCCCCCCCCCCOS(=O)(=O)O (tested in a mixture with another compound)
CLASS ASSIGNMENT: -1

Request: Called result for `CCCCCCCCCCCCCCCCCC(=O)OCCN1C(=O)c2ccccc2C1=O`
Response: -1

Request: Same read-out for `O=C(CCCCCCCCCCc1ccccc1)c1ccc(Cl)cc1` ?
Response: 1

Request: Same read-out for `c1cc[c]([Ge]([O]c2cccc3cccnc23)([c]2ccccc2)[c]2ccccc2)cc1` ?
Response: -1

Request: Same read-out for `Nc1ccc([N+](=O)[O-])cc1Nc1c2ccccc2nc2ccccc12` ?
Response: -1

Request: Same read-out for `CCCCCCCCCc1cccc(N2C(N)=NC(N)=NC2(C)C)c1` ?
Response: 1

Request: Same read-out for `Cc1cc2nc3ccc(N(C)C)cc3nc2cc1N` ?
Response: -1

Request: Same read-out for CC1C(CCC(=O)O)OC2CC3C4CCC5CC(O)CCC5(C)C4CCC3(C)C21 (stereo unspecified) ?
Response: 1

Request: Same read-out for `CCCCc1ccc2c(c1)Nc1cc3ccccc3cc1N2` ?
Response: -1

Data credit: PubChem BioAssay (NCI)
